# Tested on: HT29 colon
# ASSAY_PROCEDURE: NCI tumour cell line growth inhibition, 48 h
Our labelling divides records by TGI into ranges: group 1 (below 5 µM), group 2 (5 µM to below 40 µM), group 3 (40 µM or more)

Would you mind sorting O=C1/C(=C/c2ccccc2)CCCC1CN1CCCCC1 (centres undefined) into the appropriate category?
group 1

Please let me know in which category the item COC(=O)C1=C(c2ccc(OC)c(OC)c2)OC(c2ccc(OC)c(OC)c2)C1 (centres undefined) belongs.
group 3

# bin label for `COc1cc2c(cc1O)CC[C@@H]1[C@@H]2CC[C@]2(C)[C@@H](NCCN(C)C)CC[C@@H]12`
group 1

Which class holds `O=S(=O)(O)c1c(Cl)cc(O)c2ncccc12` ?
group 3

Which class holds `FC(F)(F)c1nc(N2CCCC2)ncc1-c1nnnn1-c1ccc(Cl)cc1` ?
group 3

Which category does the recorded TGI put N#Cc1c(-c2ccccc2)nc(SCC2CO2)nc1N1CCOCC1 (centres undefined) in?
group 3

Bin this entry: `CCOc1ccc2nc(-c3ccc(O)cc3)sc2c1`
group 3

Returns: class label. Input: `Cc1ccc(S(=O)(=O)OC2CCN(C)CC2)cc1`
group 3

Categorize the following entry: COc1ccc(C2CC(c3cc(OC)c(OC)c(OC)c3)=NO2)cc1OCCCCOc1cc2c(cc1OC)C(=O)N1CCC[C@H]1C=N2 (some centres undefined)
group 2

Which class holds CC(C)(C)OC1=C(OC(C)(C)C)C(O)(c2ccccc2)C1=O (centres undefined) ?
group 3

Band of `Oc1ccc(-c2csc(NNC3=NC/C(=C/c4ccc5c(c4)OCO5)S3)n2)cc1O` ?
group 3

Into which bin does this compound go? `O=C1c2ccccc2-c2c1c1ccccc1c(=O)n2CCCCNCCCn1c2c(c3ccccc3c1=O)C(=O)c1ccccc1-2`
group 2

In plain terms, what class is CCC(C)n1c(C)nc2c1C(=O)c1ccccc1C2=O (centres undefined) ?
group 3

Category of COC1=C2CC(C)CC(OC)C(O)C(C)/C=C(\C)C(OC(N)=O)C(OC)/C=C\C=C(/C)C(=O)NC(=C(C=NC(C)(C)C)C1=O)C2=O (centres undefined) , please.
group 2

Note: place this compound into its band. Item: C=CCOC(=O)N1[C@H]2C#C/C=C\C#C[C@]3(O)C(=O)C[C@H](C)[C@]24O[C@]43C2=CC(=O)C=CC21OC (some centres undefined)
group 3

Assign a category based on measured TGI for `CC(=O)NCCc1c2c(c3nccc4c3c1Nc1ccccc1-4)OCS2` and give only the class name.
group 1

# bin lookup: classify CC1CC[C@]2(C(=O)O)CCC3(COC(=O)/C=C\c4ccc(O)cc4)C(=CCC4[C@@]5(C)CC[C@H](O)C(C)(C)C5CC[C@]43C)[C@@H]2[C@H]1C (some centres undefined) by its TGI
group 2

###

# Test system: HS 578T breast
# ASSAY_PROCEDURE: NCI tumour cell line growth inhibition, 48 h; in the data active = GI50 below about 0.43 µM; inactive = the rest
Form entry, call: pick from active, inactive

Kindly provide the recorded test outcome for the following compound: CC(=O)OC1C(C)OC(Oc2c(C)c3c4c(c2O)[C@@H](C)CC[C@@H]4[C@@H](C)C[C@H]3C=C(C)C)C(O)C1O (some centres undefined)
inactive

State the result this test recorded for `N=C(N)c1ccc(OCc2cccc(COc3ccc(C(=N)N)cc3)c2)cc1` .
inactive

# outcome recorded in this test, key = `COC(=O)CCC(=O)C(=O)OC`
inactive

Can you look up the reported call for Cc1ccc2c(c1)C(C)Cc1c(ncnc1-n1cnc3ccccc31)N2C (centres undefined) for me?
active

Which outcome was assigned to CCSCC1CC(O)(c2ccccc2)C(c2ccccc2)C(c2ccc(Cl)cc2)O1 (centres undefined) in this test?
inactive

Please let me know the test result on file for `O=C(Nc1cccc(-n2ccc3c(NC(=O)c4ccccc4)nccc32)c1)c1ccc(N2CCOCC2)c(C(F)(F)F)c1` .
active

For this compound, state the assay outcome: `C=CC[n+]1c(/C=C/C=C2\N(C)c3ccccc3C2(C)C)sc2ccc(OC)cc21`
inactive

Which outcome was entered for the compound `CCNC(=O)[C@@H]1CCCN2C(=O)CC[C@H](NC(=O)[C@H](Cc3ccc(OP(=O)(O)O)cc3)NC(C)=O)C(=O)N12` in this test?
inactive

Recorded test call requested for COc1ccc(C2CC(c3cc(OC)c(OC)c(OC)c3)=NO2)cc1OCCCCOc1cc2c(cc1OC)C(=O)N1CCC[C@H]1C=N2 (some centres undefined)
inactive
